Where these numbers come from: patent US8134015B2

Molecular target: rat NaPi-2b (Rattus norvegicus)
Sequence (Q9JJ09 whole entry): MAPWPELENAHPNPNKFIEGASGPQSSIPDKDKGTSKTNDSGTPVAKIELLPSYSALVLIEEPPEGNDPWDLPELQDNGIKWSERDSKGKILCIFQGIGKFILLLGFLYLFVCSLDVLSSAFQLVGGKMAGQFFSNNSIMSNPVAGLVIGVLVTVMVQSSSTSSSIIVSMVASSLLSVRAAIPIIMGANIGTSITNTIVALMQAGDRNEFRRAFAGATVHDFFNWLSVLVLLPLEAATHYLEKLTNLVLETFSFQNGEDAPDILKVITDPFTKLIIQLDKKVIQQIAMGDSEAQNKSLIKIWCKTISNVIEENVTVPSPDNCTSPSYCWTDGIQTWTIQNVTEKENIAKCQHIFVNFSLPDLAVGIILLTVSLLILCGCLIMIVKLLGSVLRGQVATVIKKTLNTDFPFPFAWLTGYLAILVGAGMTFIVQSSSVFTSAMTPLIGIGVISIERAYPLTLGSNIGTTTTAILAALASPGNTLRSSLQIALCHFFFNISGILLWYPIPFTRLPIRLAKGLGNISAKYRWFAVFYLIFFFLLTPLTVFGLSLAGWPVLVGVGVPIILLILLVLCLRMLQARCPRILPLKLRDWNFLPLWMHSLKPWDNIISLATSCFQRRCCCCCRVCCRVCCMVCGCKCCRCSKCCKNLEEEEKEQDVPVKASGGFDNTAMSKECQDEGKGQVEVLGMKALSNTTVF
Experiment: Sodium-dependent phosphate uptake of Xenopus oocytes which expressed NaPi-2b (32P)
Conditions: Xenopus oocytes expressing rat NaPi-2b, 32P radioactive phosphorus; read-out: IC50 (phosphate uptake inhibitory activity)
property_label: IC50 (µM)
Numbers only, in µM.

1. O=C(Nc1ccccc1C(=O)N/N=C/c1ccc(F)cc1)c1cccc(F)c1 = 6.03

Each compound below has a recorded value; state its IC50.
1. CCN(CC)CCOc1ccc(NC(=O)c2cccc(CN(CC(C)O)CC(C)O)c2)c(C(=O)NN=Cc2ccc(C)c(C)c2)c1 (centres unmarked)
2. Cc1cc(C(=O)Nc2ccccc2C(=O)N/N=C/c2cccc(F)c2)c(C)o1
3. COc1ccc(C(=O)Nc2ccc(OCCCN(C)C)cc2C(=O)N/N=C/c2ccc(F)cc2)cc1OC
4. Cc1ccc(/C=N/NC(=O)c2cc(Br)ccc2NC(=O)c2cccc(CNCCN3CCOCC3)c2)cc1C
5. CC(O)CN(Cc1cccc(C(=O)Nc2ccc(Cl)cc2C(=O)N/N=C/c2ccc(OCCCN(C)C)cc2)c1)CC(C)O (centres unmarked)

Given back:
1. 10.6
2. 2.15
3. 136
4. 2.31
5. 16.6
